Values were extracted from PubChem BioAssay AID2642.

biological target: Potassium voltage-gated channel subfamily KQT member 1 (Homo sapiens); assay: inhibitors of human KCNQ1 channel, primary screen, cell-based, thallium flux, high-throughput (AID 2642); conditions: CHO-K1 KCNQ1, FluxOR thallium flux fluorescence, at 10 µM;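 also: channel opened by potassium depolarization with thallium stimulus after 20 min compound exposure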
The whole screen tested about 310,000 compounds, of which about 3,900 (1.3%) were called active.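 The calls were made as follows: active = compounds whose thallium flux B-score, printed positive for inhibition, exceeds three library SD while starting fluorescence stays within three; inactive = the rest.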 The entries come from a sample that favours actives as a whole.
Answer with one of the outcomes active, inactive

Use the examples below as a reference point.
* CC(C)CCN(C(=O)c1csnn1)C(C(=O)NC1CCCC1)c1ccccc1 (stereo unspecified) | inactive
* Cc1c(C(=O)NCCCc2ccccc2)cccc1[N+](=O)[O-] | inactive
* Cc1csc(NC(=O)CSc2nnc(-c3cccnc3)o2)n1 | inactive
* CCCCSc1nc2ccccc2[nH]1 | inactive
* C=CCn1nc(-c2ccccc2)c2c(C)onc2c1=O | inactive

Kindly consider the entry below.
Q: // outcome(item) with item = COc1cccc(N(CC(=O)NC2CCCC2)C(=O)Cn2nnc(-c3ccc(C)o3)n2)c1
Ans: inactive

* * *

molecular target: Potassium voltage-gated channel subfamily KQT member 1 (Homo sapiens) (UniProt P51787); assay: inhibitors of human KCNQ1 channel, primary screen, cell-based, thallium flux, high-throughput (AID 2642); conditions: CHO-K1 KCNQ1, FluxOR thallium flux fluorescence, at 10 µM; stronger effect = higher value
Sequence (P51787 whole entry, looked up): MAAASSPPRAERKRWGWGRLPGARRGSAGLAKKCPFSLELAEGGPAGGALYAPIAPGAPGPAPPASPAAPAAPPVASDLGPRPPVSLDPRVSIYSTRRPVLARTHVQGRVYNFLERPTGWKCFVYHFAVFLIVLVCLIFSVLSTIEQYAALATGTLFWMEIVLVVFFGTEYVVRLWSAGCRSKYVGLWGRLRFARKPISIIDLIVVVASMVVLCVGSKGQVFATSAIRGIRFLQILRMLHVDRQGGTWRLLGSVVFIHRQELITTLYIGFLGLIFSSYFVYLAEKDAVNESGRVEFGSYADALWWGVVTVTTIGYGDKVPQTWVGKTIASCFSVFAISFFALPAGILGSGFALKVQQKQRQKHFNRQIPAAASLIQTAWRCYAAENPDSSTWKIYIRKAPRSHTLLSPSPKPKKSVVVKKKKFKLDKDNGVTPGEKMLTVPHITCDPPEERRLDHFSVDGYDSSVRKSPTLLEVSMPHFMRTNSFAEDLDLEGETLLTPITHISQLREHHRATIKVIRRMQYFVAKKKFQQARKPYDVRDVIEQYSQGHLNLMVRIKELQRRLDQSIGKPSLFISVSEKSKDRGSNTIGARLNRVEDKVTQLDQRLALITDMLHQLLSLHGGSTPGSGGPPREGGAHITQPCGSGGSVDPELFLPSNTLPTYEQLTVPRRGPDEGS
The campaign covered roughly 310,000 compounds. About 3,900 (1.3%) were called active. Only a selection was taken, and actives are over-represented in it overall.
Readout label: B-score

- COc1ccccc1CNC(=O)C1Cc2ccccc2C(=O)O1 (centres undefined): inactive
- CC(=O)c1ccc(NC(=O)C2CCCN2S(=O)(=O)c2cccs2)cc1 (centres undefined): inactive
- CC(OC(=O)CN1C(=O)COc2ccccc21)C(=O)NCc1ccc(F)cc1 (centres undefined): inactive
- CCOc1ccc(CN2CCN(CCCc3ccccc3)C(CCO)C2)cc1 (centres undefined): inactive
- CC(C)CCN1C(=O)c2ccc(C(=O)Nc3cccc(S(N)(=O)=O)c3)cc2C1=O: inactive

Q: Fill blank: measured B-score of the molecule CCOC(=O)c1cc(C)sc1NC(=O)C1CCC1 is ____.
Ans: inactive

Q: Repeat for the following molecule: Cc1nn(CC(=O)NCCc2ccccc2)c(=O)c2cc3occc3n12
Ans: inactive

Q: Same again, this time with CCCCCCCCCCCCN1C(=O)CSC1c1cccnc1 (centres undefined)
Ans: 9 (active)

Q: Entry to check: Cc1nnc2n1N=C(c1ccc3c(c1)NC(=O)CO3)CS2
Ans: inactive

Q: For CC1c2nc3ccccc3n2C(CC(=O)NCCCN2CCOCC2)C(=O)N1Cc1ccccc1 (centres undefined) then?
Ans: inactive

Q: How about COc1ccc(S(=O)(=O)NCC(=O)NCc2cc(=O)n(C)c(=O)n2C)cc1F ?
Ans: inactive

Q: Thanks! And C/C(N)=C(/C#N)C(=O)COC(=O)C1CCN(C(=O)c2ccc(Cl)cc2)CC1 ?
Ans: inactive

Q: What do you get for CC(=O)Nc1ccc(NC(=O)C(C)OC(=O)C2CC(=O)N(CCc3ccccc3)C2)cc1 (centres undefined) ?
Ans: inactive

Q: Next: Cc1ccc(-c2noc(CC(c3ccccc3)c3ccccc3)n2)cc1
Ans: 7 (active)

Q: Now consider CCOC(=O)N1CCN(C(=O)C2CCN(S(=O)(=O)c3cc(Cl)ccc3OCC)CC2)CC1 .
Ans: inactive

Q: How about CC1=NN(C(C)C)C(=O)C1 ?
Ans: inactive

Q: Okay, and Cc1ccc(C)c(NC(CC(=O)c2ccccc2)C(=O)OCC(=O)c2cccs2)c1 (centres undefined) ?
Ans: inactive

Q: What do we get for O=C1CCCN1CCCNC(=S)Nc1ccc(F)c(Cl)c1 ?
Ans: 7 (active)

Q: Same question for CCCCOc1ccc(C(=O)NN2CCN(C)CC2)cc1 please.
Ans: inactive

Q: How about this molecule: O=C(CN1C(=O)c2ccccc2C1=O)NCc1ccc(C(=O)O)cc1
Ans: inactive

* * *

target: Potassium voltage-gated channel subfamily KQT member 1 (Homo sapiens); assay: inhibitors of human KCNQ1 channel, primary screen, cell-based, thallium flux, high-throughput (AID 2642); settings: CHO-K1 KCNQ1, FluxOR thallium flux fluorescence, at 10 µM
About 3,900 (1.3%) of roughly 310,000 compounds were called active.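 How the source made its calls: active means compounds whose thallium flux B-score, printed positive for inhibition, exceeds three library SD while starting fluorescence stays within three; inactive means the rest.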 The list comes from a sample in which actives are over-represented; it also holds close analogues and randomly drawn compounds.
# valid calls are t (active), f (inactive); nothing else

Please review the entries below; each comes with its answer.
* C=CCn1c(SCc2ccc(C(=O)NCCO)cc2)nc2ccccc2c1=O | f
* COc1ccc(N2CC(C(=O)N[C@@H](C)C(=O)N3CCCCC3)CC2=O)cc1 (stereo partly specified) | f
* O=C(NC1CCC(O)CC1)c1ccccc1OCc1ccc(F)cc1 (stereo unspecified) | f
* O=C(Nc1ccc2ccccc2c1)Nc1ccc2snnc2c1 | t
* CCNS(=O)(=O)c1ccc(NC(=O)Nc2cccc(C(F)(F)F)c2)cc1 | f
* CC(=O)c1ccccc1OCc1ccc(C(=O)c2ccccc2)cc1 | t

Q: // return assay outcome for CCc1ccccc1NC(=O)c1ccc2snnc2c1
Ans: f

Q: Thanks! And O=C(Nn1c(SCc2ccc([N+](=O)[O-])cc2)nc2ccccc2c1=O)c1ccc(F)cc1 ?
Ans: t

Q: Same read-out for O=C(/C=C/c1ccc(F)cc1)Nc1cccc(S(=O)(=O)Nc2cccc(C(F)(F)F)c2)c1 ?
Ans: f

Q: Quick one: Cc1oc2c(F)c(F)c(F)c(F)c2c1S(=O)(=O)Nc1cccc(C(F)(F)F)c1
Ans: t

Q: CSC1=N/C(=C\C=C\c2cccs2)C(=O)S1 , same question.
Ans: f

* * *

biological target: Potassium voltage-gated channel subfamily KQT member 1 (Homo sapiens) (UniProt P51787); assay: inhibitors of human KCNQ1 channel, primary screen, cell-based, thallium flux, high-throughput (AID 2642); conditions: CHO-K1 KCNQ1, FluxOR thallium flux fluorescence, at 10 µM;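 also: channel opened by potassium depolarization with thallium stimulus after 20 min compound exposure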
The whole screen tested about 310,000 compounds, of which about 3,900 (1.3%) were called active.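 Rule for the calls: active = compounds whose thallium flux B-score, printed positive for inhibition, exceeds three library SD while starting fluorescence stays within three; inactive = the rest.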 Only a selection was taken, and actives are over-represented in it overall.
# valid calls are active, inactive; nothing else

* O=C(/C=C/Sc1ncn[nH]1)c1ccc(Cl)cc1 | active
* Nc1nnnn1/N=C/c1cc([N+](=O)[O-])ccc1O | inactive
* O=C(CSc1ncn[nH]1)N/N=C/c1ccc(F)cc1 | inactive
* CCOC(=O)c1[nH]ncc1CN1CCCC(C(=O)c2ccc(OC)cc2C)C1 (stereo unspecified) | inactive
* Cc1cc(C)nc(S/C=C/C(=O)c2ccccc2)n1 | inactive

Q: Kindly provide the recorded test outcome for the following compound: COc1ccc(C(=O)C2CCCN(Cc3cccn3-c3ccccn3)C2)c(C)c1 (stereo unspecified)
Ans: active

* * *

target: Potassium voltage-gated channel subfamily KQT member 1 (Homo sapiens) (UniProt P51787); assay: inhibitors of human KCNQ1 channel, primary screen, cell-based, thallium flux, high-throughput (AID 2642); details: CHO-K1 KCNQ1, FluxOR thallium flux fluorescence, at 10 µM;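 also: channel opened by potassium depolarization with thallium stimulus after 20 min compound exposure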
In all, about 310,000 compounds went through this assay and about 3,900 (1.3%) were called active.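 Rule for the calls: active = compounds whose thallium flux B-score, printed positive for inhibition, exceeds three library SD while starting fluorescence stays within three; inactive = the rest.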 Many of the other results were omitted from the sample, so actives are more common in it than they were.
Answer with one of the outcomes Yes = active, No = inactive

Consider the worked cases shown below.
• COc1ccc(S(=O)(=O)/N=C2\C=C(NS(=O)(=O)c3ccccc3)C(=O)c3ccccc32)cc1 = Yes
• CC(C(=O)NC1CCCC1)N(c1ccc(Oc2ccccc2)cc1)S(C)(=O)=O (centres undefined) = No
• Cc1nn(-c2ncc(C(F)(F)F)cc2Cl)c(=O)n1-c1ccccc1 = No
• CCc1ccc(N(CC(=O)Nc2sc3c(c2C(=O)OC)CCCC3)S(C)(=O)=O)cc1 = No
• CCN(CC)CC(=O)Nc1sc2c(c1C(=O)c1ccccc1C)CCC2 = Yes

Q: I'd appreciate the recorded outcome for CCCC(NS(=O)(=O)c1ccc(OC)cc1)C(=O)O (centres undefined) from this test.
Ans: No

Q: Next up: CCc1ccc(OCC(=O)NCC(c2ccc(Cl)cc2)N2CCCCC2)cc1 (centres undefined)
Ans: No

Q: Moving on to the next compound: Cc1nnc(SCC(=O)Nc2ncc3c(n2)CC(C)(C)CC3=O)s1
Ans: No

* * *

molecular target: Potassium voltage-gated channel subfamily KQT member 1 (Homo sapiens) (UniProt P51787); assay: inhibitors of human KCNQ1 channel, primary screen, cell-based, thallium flux, high-throughput (AID 2642); details: CHO-K1 KCNQ1, FluxOR thallium flux fluorescence, at 10 µM; stronger effect = higher value;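 also: channel opened by potassium depolarization with thallium stimulus after 20 min compound exposure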
The campaign covered roughly 310,000 compounds. About 3,900 (1.3%) were called active. What follows is part of a selection rich in actives, with near analogues and random picks from the rest.
Readout label: B-score

* CCOC(=O)CCc1c(C)c(C#N)c2[nH]c3ccccc3n2c1=O | inactive
* COc1ccc(Cl)cc1NC(=O)C(C)N1CCc2ccccc21 (stereo not given) | 7 (active)
* CC(C)[C@H](NC(=O)N1CCn2c1nc1ccccc12)C(=O)NCCc1ccccc1 | inactive
* COc1c(N2CCN(C(=S)Nc3ccccc3F)C(C)C2)c(F)cc2c(=O)c(C(=O)O)cn(C3CC3)c12 (stereo not given) | inactive
* COc1ccccc1NC(=O)C1CCN(C(=O)c2ccc(C(C)(C)C)cc2)CC1 | inactive

Q: Enter reported B-score observed with Potassium voltage-gated channel subfamily KQT member 1 (Homo sapiens) (UniProt P51787) for Cc1ccc2c(c1)N(CCCC(=O)NCc1cccnc1)C(=O)CO2
Ans: inactive

Q: Then what about the compound Cc1cc(=O)oc2c3c(cc(OCC(=O)NCCC(=O)N[C@@H](C)C(=O)O)c12)OC(C)(C)CC3 ?
Ans: inactive

Q: What about this compound? CCCc1cc(=S)n2c([nH]c3ccccc32)c1C#N
Ans: 8 (active)

Q: Check C=CCn1c(Cn2nnc3ccccc32)nnc1SCC(=O)N/N=C/c1cc(Br)cc(OC)c1O too.
Ans: inactive

Q: # repeat for CC(=O)Nc1ccc(N2CCOCC2)c(C(=O)Nc2cccc(C)c2)c1
Ans: inactive
